Entries annotated with measured % cells bound
- STUDY_TARGET: T1, human IL-12Rβ2 (human, UniProt Q99665 24-862)
- T1 construct: Expressed on HEK293T cells transiently transfected with a pcDNA3 plasmid (Genscript clone OHu21785); also called hIL-12RB2; IL-12 receptor β2 subunit
- T1 sequence: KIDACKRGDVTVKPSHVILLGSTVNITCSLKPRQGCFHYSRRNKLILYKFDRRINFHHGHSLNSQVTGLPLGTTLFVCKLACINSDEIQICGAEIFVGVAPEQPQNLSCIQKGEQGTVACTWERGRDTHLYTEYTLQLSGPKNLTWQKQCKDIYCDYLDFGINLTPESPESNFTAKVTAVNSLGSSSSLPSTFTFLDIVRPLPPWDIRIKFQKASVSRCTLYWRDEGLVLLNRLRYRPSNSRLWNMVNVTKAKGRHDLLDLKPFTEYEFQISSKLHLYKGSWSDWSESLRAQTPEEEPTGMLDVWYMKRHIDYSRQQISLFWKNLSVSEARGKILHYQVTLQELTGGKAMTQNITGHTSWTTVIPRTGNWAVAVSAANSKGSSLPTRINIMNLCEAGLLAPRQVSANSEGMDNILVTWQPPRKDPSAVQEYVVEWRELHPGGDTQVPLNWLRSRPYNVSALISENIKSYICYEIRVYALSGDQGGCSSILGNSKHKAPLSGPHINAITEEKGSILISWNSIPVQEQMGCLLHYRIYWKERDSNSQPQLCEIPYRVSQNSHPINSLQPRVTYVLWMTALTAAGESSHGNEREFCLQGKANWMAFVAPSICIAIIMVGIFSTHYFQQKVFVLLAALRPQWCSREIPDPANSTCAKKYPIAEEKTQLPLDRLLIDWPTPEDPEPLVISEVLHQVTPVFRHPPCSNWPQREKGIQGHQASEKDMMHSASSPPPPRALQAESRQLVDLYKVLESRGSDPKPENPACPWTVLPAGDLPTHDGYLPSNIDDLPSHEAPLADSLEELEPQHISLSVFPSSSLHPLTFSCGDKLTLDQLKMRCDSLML
- PROTOCOL_SUMMARY: flow cytometry, P.E. on transfected HEK293T cells
Write the answer as a number in %, unit excluded.

Examples with their reported % cells bound follow.
BINDER: anti-IL-12Rβ2 VHH clone 3CRH17 (VHH, not shown: small tags and cut ends, periplasmic extract) VHH: QVQLQESGGGLVQAGGSLVLSCAASGSAALIFLMSWYRQAPGKQRELVAEVSRYGSTTYADSVEGRFTISRDNAKNIVDLQMNSLKPEDTAVYYCKADQYYGDSLRSSWGRGTQVTVSS
PROPERTY_NAME: % cells bound
READOUT_VALUE: 32.5
--
BINDER: anti-IL-12Rβ2 VHH clone 3CRHM85 (VHH, not shown: small tags and cut ends, periplasmic extract; also called 21061) VHH: QVQLQESGGGLVQPGGSLRLSCAASRRTFSKHAMAWFRQAPGKEREFVAVVRWSGIITYYADSVKGRFTISRDDAKNTVYLQMDSLKPEDTAVYYCAAGDYRGNGYYVPGMYDYWGQGTQVTVSS
PROPERTY_NAME: % cells bound
READOUT_VALUE: 31.2
--
BINDER: anti-IL-12Rβ2 VHH clone 3CRHS156 (VHH, not shown: small tags and cut ends, periplasmic extract) VHH: QVQLQESGGGLVQSGGSLRLSCVSSQTLVGIEAMGWYRQAPGKQRELVALITLNGGTFYADSVKGRFAISRDVAEHMLYLEMNSLNPEDTAVYFCVAGVESDNEEPTYWGQGTQVTVSS
PROPERTY_NAME: % cells bound
READOUT_VALUE: 1.51
--
BINDER: anti-IL-12Rβ2 VHH clone 3CRHS142 (VHH, not shown: small tags and cut ends, periplasmic extract) VHH: QVQLQESGGGLVQAGGSLRLSCVSSQTLVGIEAMGWYRQAPGKQRELVALITLNGGTFYADSVKGRFTISRDVAEHMLYLEMNSLNPEDTAVYFCVAGVESDNEEPTYWGQGTQVTVSS
PROPERTY_NAME: % cells bound
READOUT_VALUE: 1.02
--
BINDER: anti-IL-12Rβ2 VHH clone 3CAHS150 (VHH, not shown: small tags and cut ends, periplasmic extract) VHH: QVQLQESGGGSVQAGGSLRLSCAASGRTINAYVMGWFRQAPGKEREFVAAISGSGGSTYYADSVKGRFTISRDNAKNTVNLQMDNLRSEDTDVYYCAATYESVYLQNPGQYDYWGQGTQVTVSS
PROPERTY_NAME: % cells bound
READOUT_VALUE: 47.4

Given anti-IL-12Rβ2 VHH clone 3CAHS52 (VHH, not shown: small tags and cut ends, periplasmic extract) VHH: QVQLQESGGGSVQAGGSLRLSCAASGRTINAYIMGWFRQAPGKEREFVAAVSGSGGSTYYADSVKGRFTISRDNAKNTVNLQMDNLRSEDTDVYYCAATYESVYLQNPGQYDYWGQGTQVTVSS , respond with its % cells bound. 44.3

Look up % cells bound of anti-IL-12Rβ2 VHH clone 3CAHS79 (VHH, not shown: small tags and cut ends, periplasmic extract) VHH: QVQLQESGGGLVQPGGSLRLTCVASGFPFSTHAMSWVRQPPGKGREWISAINSGGDSTDYADSVMGRFTISRDNAKNTVYLQMNSLKSEDTAVYYCAKYEDCSDYDCSSRASWGQGTQVTVSS and report it. 46.1

Output measured % cells bound for this item: anti-IL-12Rβ2 VHH clone 3CAH28 (VHH, not shown: small tags and cut ends, periplasmic extract; also called 20356) VHH: QVQLQESGGGLVQSGASLRLSCAASERTLSGYAMGWFRQAPGKEREFVAAIRWSGSSTYYAESVEGRFTISRDNAKNTVYLQMNILKPEDTAVYYCAAGSDYADEYDYWGQGTQVTVSS 0.15
